study system: Integrin alpha-v beta-3 (UniProt P06756;P05106 P06756:31-992,P05106:27-718)
Sequence (P06756 31-992, chain 1 of 2): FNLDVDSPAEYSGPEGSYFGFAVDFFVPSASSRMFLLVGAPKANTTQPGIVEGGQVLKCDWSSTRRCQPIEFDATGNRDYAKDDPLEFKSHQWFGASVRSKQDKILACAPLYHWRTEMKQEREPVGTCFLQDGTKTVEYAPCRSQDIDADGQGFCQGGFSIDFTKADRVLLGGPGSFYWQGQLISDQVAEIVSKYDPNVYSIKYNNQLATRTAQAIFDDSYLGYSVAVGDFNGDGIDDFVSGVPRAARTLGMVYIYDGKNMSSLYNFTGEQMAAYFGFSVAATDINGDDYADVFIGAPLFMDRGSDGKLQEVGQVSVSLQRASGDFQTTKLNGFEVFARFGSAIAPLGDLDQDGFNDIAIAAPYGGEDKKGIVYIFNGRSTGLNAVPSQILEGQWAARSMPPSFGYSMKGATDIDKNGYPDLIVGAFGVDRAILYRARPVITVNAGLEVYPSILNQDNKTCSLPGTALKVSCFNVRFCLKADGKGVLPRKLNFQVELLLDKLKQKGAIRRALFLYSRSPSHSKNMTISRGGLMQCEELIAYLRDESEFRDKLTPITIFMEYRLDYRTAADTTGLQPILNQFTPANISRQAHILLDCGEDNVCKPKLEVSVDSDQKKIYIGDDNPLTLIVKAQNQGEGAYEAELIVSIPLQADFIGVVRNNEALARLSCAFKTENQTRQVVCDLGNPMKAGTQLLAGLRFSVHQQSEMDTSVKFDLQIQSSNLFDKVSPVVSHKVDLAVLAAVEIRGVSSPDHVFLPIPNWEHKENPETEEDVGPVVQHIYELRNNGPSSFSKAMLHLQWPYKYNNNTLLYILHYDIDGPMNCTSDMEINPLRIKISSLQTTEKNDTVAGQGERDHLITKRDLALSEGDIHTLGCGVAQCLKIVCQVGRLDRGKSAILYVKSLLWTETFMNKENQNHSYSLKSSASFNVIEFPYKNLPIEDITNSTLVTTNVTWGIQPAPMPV
Sequence (P05106 27-718, chain 2 of 2): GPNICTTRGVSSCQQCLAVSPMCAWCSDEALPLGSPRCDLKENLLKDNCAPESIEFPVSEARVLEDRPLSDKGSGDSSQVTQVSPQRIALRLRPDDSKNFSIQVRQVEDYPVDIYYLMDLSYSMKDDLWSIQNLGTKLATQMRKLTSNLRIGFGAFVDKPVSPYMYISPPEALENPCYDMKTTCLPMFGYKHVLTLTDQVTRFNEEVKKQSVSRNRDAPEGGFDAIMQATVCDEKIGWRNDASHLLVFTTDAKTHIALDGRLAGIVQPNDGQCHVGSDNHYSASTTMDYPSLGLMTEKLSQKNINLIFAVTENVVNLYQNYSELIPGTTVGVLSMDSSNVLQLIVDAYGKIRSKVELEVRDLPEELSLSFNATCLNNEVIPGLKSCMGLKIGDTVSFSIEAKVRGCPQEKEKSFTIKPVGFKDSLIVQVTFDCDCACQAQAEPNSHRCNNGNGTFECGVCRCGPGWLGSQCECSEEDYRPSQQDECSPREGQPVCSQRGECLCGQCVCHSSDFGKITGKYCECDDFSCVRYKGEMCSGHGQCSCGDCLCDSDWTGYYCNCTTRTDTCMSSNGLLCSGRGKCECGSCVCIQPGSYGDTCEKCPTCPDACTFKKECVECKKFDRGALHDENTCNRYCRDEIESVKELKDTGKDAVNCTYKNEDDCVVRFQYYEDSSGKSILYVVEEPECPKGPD
protocol notes: filter; Bmax 0.88; HEPES, NaCl, KCl, MgCl2 buffer, 37 C
condition notes: tags: R&D Systems 3050-AV
measured metric: pKd
The meaning of pKd here: minus log10 of the concentration in molar units.

Annotate the binder Clone #21 (S003-A4-021-T7_E03), full length (ssDNA, n in core = 5-(N-benzylaminocarbonyl)-2'-deoxyuridine (BzdU) [n positions 27,28,30,36,37,39,41,42,44,45,46,51,58 = modified dU]) DNA: TCAGCCGCCAGCCAGTTCCGAGGGAGTTATGGAGATTGTGTTGTTTAAGGTCGGAACTGACCAGAGCACCACAGAG with its measured pKd. 7.23
